Quick list: growth per entry.
Tested on: MALME-3M melanoma
Experiment: NCI-60 one-dose screen, 48 h (100 = growth as untreated, 0 = no growth, -100 = all killed)
Details: 10 µM unless noted
The panel holds about 83,000 compounds, 20% with a hit somewhere; the sample as a whole holds those more often.
Endpoint name: growth (%)

1) CNC(=O)c1cc(Oc2cccc3nc(Nc4ccc(Oc5ccccc5)cc4)ccc23)ccn1    78.2
2) O=C(/C=C/c1ccc2c(c1)OCO2)c1c(O)c2ccccc2oc1=O    101
3) CC(C)(C)c1cnc(CSc2cnc(NC(=O)C3CCNCC3)s2)o1    -41.1
4) CNC(=O)c1ccccc1Nc1nc(Nc2ccc3c(c2OC)CCC[C@H](N2CCN(CCO)CC2)C3)ncc1Cl    -52.1
5) Ic1ccccc1-c1ccccc1    95
6) C=CC(=O)Nc1cc(Nc2nccc(-c3cn(C)c4ccccc34)n2)c(OC)cc1N(C)CCN(C)C    -82.4
7) O=S1(=O)OC(c2cc(Cl)c(O)c(Br)c2)(c2cc(Cl)c(O)c(Br)c2)c2ccccc21    115
8) COc1ccc(C2OC(c3cc(-c4cc5ccccc5o4)nn3-c3ccccc3)=NN2C(C)=O)cc1 (stereo not given)    107
9) Cc1ccccc1Nc1nc2nonc2nc1Nc1cccc(C)c1C    78.6
10) CCOC(=O)c1sc(NC(=O)COc2ccc(/C=C3\Cc4ccc(Cl)cc4C3=O)cc2)nc1C    110

----------
Quick list: growth per entry.
Tested on: MALME-3M melanoma
Test: NCI-60 one-dose screen, 48 h (100 = growth as untreated, 0 = no growth, -100 = all killed)
Conditions: 10 µM unless noted
The panel holds about 83,000 compounds, 20% with a hit somewhere; the sample as a whole holds those more often.
Endpoint name: growth (%)

1. O=C1C=CC2(NN=C(c3ccccc3)N2c2cccc(Cl)c2)c2cccc(O)c21 (stereo not given)    38.7
2. Cc1cc(C(=O)NOCCO)c(Nc2ccc(I)cc2F)n(C)c1=O    -4.71
3. COc1ccc(-c2ccc3c(N4CCOC[C@@H]4C)nc(N4CCOC[C@@H]4C)nc3n2)cc1CO    -8.07
4. COc1ccc2c(CCC(c3ccccc3)c3ccccc3)c3[n+](cc2c1OC)CCc1cc2c(cc1-3)OCO2    -7.17
5. CC[C@@H]1C(=O)N(C)c2cnc(Nc3ccc(C(=O)NC4CCC(N5CCN(CC6CC6)CC5)CC4)cc3OC)nc2N1C(C)C (stereo not given in full)    -80.6

----------
Test system: MDA-MB-435 melanoma
Assay: NCI-60 one-dose screen, 48 h
Details: 10 µM unless noted
This is part of a sample that, as a whole, favours compounds with a hit. Of some 83,000 tested, about 20% had one in any assay. Activity calls are given as the source filed them. How the source made its calls: active means growth percent below 10; inactive means the rest.
Possible outcomes: yes (1) for active, no (0) for inactive

1. O=C(NO)c1ccc(Cn2c(=O)n(CCc3ccccc3)c(=O)c3ccccc32)cc1    no (0)
2. CCN(CC)CCNC(=O)c1c(C)[nH]c(/C=C2\C(=O)Nc3ccc(F)cc32)c1C    yes (1)
3. CCC1(/C=N/NC(N)=S)NC(=O)NC1=O (stereo unspecified)    no (0)
4. Cc1ccc(NC(=O)NC(=O)CSc2nc3ccccc3nc2C)cc1    no (0)
5. C=CC(=O)Nc1cc2c(Nc3ccc(F)c(Cl)c3)ncnc2cc1OCCCN1CCOCC1    no (0)
6. Cn1ncc(Cl)c1-c1cc(C(=O)N[C@H](CN)Cc2cccc(F)c2)sc1Cl    yes (1)
7. CC(CCCC(=O)O)c1ccoc1 (stereo unspecified)    no (0)
8. C[C@@H](N)c1ccc(C(=O)Nc2ccnc3[nH]ccc23)cc1    no (0)
9. CCc1cc2c(cc1N1CCC(N3CCOCC3)CC1)C(C)(C)c1[nH]c3cc(C#N)ccc3c1C2=O    yes (1)
10. N#Cc1c(NC(=O)c2ccco2)[n+]([O-])c2cc(F)c(F)cc2[n+]1[O-]    no (0)
11. C=CC(=O)N1CCC(Oc2cc3c(Nc4ccc(Cl)c(Cl)c4F)ncnc3cc2OC)CC1    yes (1)
12. C/C=C/C=N/NC(=S)Nc1ccccc1    no (0)
13. COc1cc2nccc(Oc3ccc(NC(=O)Nc4cc(C)on4)c(Cl)c3)c2cc1OC    no (0)
14. COc1cc2ncnc3c2cc1OCCCCCN(C)Cc1ccc(Br)cc1N3    no (0)
15. Cn1ccnc1C(=O)/C=C/c1ccc(CC(=O)Nc2ccc(S(F)(F)(F)(F)F)cc2)cc1    no (0)
16. Cc1ccc(NC(=O)Nc2ccc(Nc3ncnc4sc5c(c34)CCOC5)cc2)cc1Cl    no (0)
17. COc1cc2c(Oc3ccc(NC(=O)C4(C(=O)Nc5ccc(F)cc5)CC4)cc3F)ccnc2cc1OCCCN1CCOCC1    yes (1)
18. CC(C)[C@@H]1CC[C@]2(CO2)[C@@H]2C(=O)OCC(C(=O)O)=C[C@H]21    yes (1)
19. O=C(c1ccccc1)C(c1ccccc1)N1CCOCC1 (stereo unspecified)    no (0)
20. COc1cnc2c(c1)C(=O)c1c-2n(CCCN2CCOCC2)c(=O)c2cc(Cl)ccc12    no (0)
21. Cc1[nH]c(/C=C2\C(=O)Nc3ccc(F)cc32)c(C)c1C(=O)NC[C@H](O)CN1CCOCC1    no (0)

----------
Quick list: growth per entry.
Tested on: A549/ATCC NSCLC
Assay: NCI-60 one-dose screen, 48 h (100 = growth as untreated, 0 = no growth, -100 = all killed)
Conditions: 10 µM unless noted
Compounds without any hit were thinned out: in the full panel of roughly 83,000, 20% have a hit. The source made the active and inactive calls. How the source made its calls: active means growth percent below 10; inactive means the rest.
Endpoint name: growth

1. Cc1ccc(N)cc1CN1C(=O)c2ccccc2C1=O    105% (inactive)
2. O=C(Cn1ccc2ccccc21)Nc1ccc(-c2nc3ccccc3s2)cc1    98.3% (inactive)
3. Cc1ccsc1C(NC(=O)c1ccccc1)c1cc(Cl)c2cccnc2c1O (centres undefined)    14.3% (inactive)
4. COc1cccc2cc(-c3nc(C4CCC(C(=O)O)CC4)n4ncnc(N)c34)[nH]c12 (centres undefined)    5.25% (active)
5. CN1CCN(c2ccc(OC(F)(F)F)c(Nc3ncc4c(n3)-c3c(c(C(N)=O)nn3CCO)CC4)c2)CC1    9.12% (active)
6. C=CC(=O)N(C)[C@H]1C[C@H]2OC(C)(C1OC)n1c3ccccc3c3c4c(c5c6ccccc6n2c5c31)C(=O)NC4 (some centres undefined)    9.49% (active)
7. CCCC(=O)OCC1OC(n2cnc3c(=S)nc[nH]c32)C(OC(=O)CCC)C1OC(=O)CCC (centres undefined)    83.9% (inactive)
8. CCCCn1c(C)nc2cc(Nc3nc(N4CCCCC4)nc4nc[nH]c34)ccc21    48.4% (inactive)
9. C/C(=C(/c1ccc(Cl)cc1)c1ccc(OCCN2CCCCCC2)cc1)c1ccccc1    67.8% (inactive)
10. O=C(NO)c1ccc(Cn2c(=O)n(-c3ccccc3F)c(=O)c3ccccc32)cc1    5.07% (active)
11. Cc1cc(Nc2ncc(Cl)c(Nc3ccccc3S(=O)(=O)C(C)C)n2)c(OC(C)C)cc1C1CCNCC1    -99.8% (active)
12. CC(C)Nc1cc(-c2c[nH]c(C(=O)N[C@H](CO)c3cccc(Cl)c3)c2)c(Cl)cn1    14.8% (inactive)
13. COc1ccc(COc2cc3oc(=O)c4cc(C(C)O)ccc4c3cc2OC)cc1 (centres undefined)    48.6% (inactive)
14. COC(=O)c1ccc2c(C(=Nc3ccc(N(C)C(=O)CN4CCN(C)CC4)cc3)c3ccccc3)c(O)[nH]c2c1    45.8% (inactive)
15. CC(C)=CCc1cc2c(cc1O)C1=C(C(=O)C3=C(NCCS3(=O)=O)C1=O)C(C=C(C)C)O2 (centres undefined)    65.8% (inactive)
16. Nc1nc(=S)c2ncn(C3OC(COC(=O)c4ccc(Cl)cc4)C(OC(=O)c4ccc(Cl)cc4)C3OC(=O)c3ccc(Cl)cc3)c2[nH]1 (centres undefined)    98% (inactive)
17. NC(=O)c1c(OCc2c(F)cc(Br)cc2F)nsc1NC(=O)NCCCCN1CCCC1    -15.6% (active)
18. NC[C@@](O)(c1ccc(Cl)cc1)c1ccc(-c2cn[nH]c2)cc1    18.3% (inactive)
19. Cc1cc(N(CCNc2ccnc3cc(Cl)ccc23)Cc2cccs2)nc(Cl)n1    15.8% (inactive)

----------
System: SK-MEL-5 melanoma
Experiment: NCI-60 one-dose screen, 48 h
Details: 10 µM unless noted
This is part of a sample that, as a whole, favours compounds with a hit. Of some 83,000 tested, about 20% had one in any assay. Activity calls are given as the source filed them. The calls were made as follows: active = growth percent below 10; inactive = the rest.
Possible outcomes: YES (active), NO (inactive)

1. O=C(NC1CCNCC1)c1[nH]ncc1NC(=O)c1c(Cl)cccc1Cl    YES
2. CC/C(=C(\c1ccc(OCCN2CCCCCCC2)cc1)c1ccc(OC(=O)C2CCCCC2)cc1)c1ccc(Cl)cc1    NO
3. C=C1C(=O)O[C@H]2[C@H]1CC/C(Cn1cc(-c3cc(C)c(C)cc3C)nn1)=C\CC[C@@]1(C)O[C@@H]21    YES
4. COc1cnc2c(c1)C(=O)c1c-2n(CCCN2CCC(N)CC2)c(=O)c2cc([N+](=O)[O-])ccc12    NO
5. CCN1CCN(Cc2ccc(-c3cc4c(N[C@H](C)c5ccccc5)ncnc4[nH]3)cc2)CC1    NO
6. N#Cc1ccc(-n2nnc3ccccc32)cc1C#N    NO
7. O=C(Cn1c(=O)ccn(CCCCCCCCOc2ccc(Br)cc2)c1=O)Nc1ccc(Oc2ccc(Cl)cc2)cc1    NO
8. O=C(CNc1nnc(-c2ccc(Cl)cc2)o1)Nc1ccc(-c2nc3ccccc3s2)cc1    NO
9. COc1cc(NCCCN)c2ncccc2c1    NO
